Target: Serine/threonine-protein kinase Nek4 (Homo sapiens) (UniProt P51957)
Sequence (P51957 whole entry, looked up): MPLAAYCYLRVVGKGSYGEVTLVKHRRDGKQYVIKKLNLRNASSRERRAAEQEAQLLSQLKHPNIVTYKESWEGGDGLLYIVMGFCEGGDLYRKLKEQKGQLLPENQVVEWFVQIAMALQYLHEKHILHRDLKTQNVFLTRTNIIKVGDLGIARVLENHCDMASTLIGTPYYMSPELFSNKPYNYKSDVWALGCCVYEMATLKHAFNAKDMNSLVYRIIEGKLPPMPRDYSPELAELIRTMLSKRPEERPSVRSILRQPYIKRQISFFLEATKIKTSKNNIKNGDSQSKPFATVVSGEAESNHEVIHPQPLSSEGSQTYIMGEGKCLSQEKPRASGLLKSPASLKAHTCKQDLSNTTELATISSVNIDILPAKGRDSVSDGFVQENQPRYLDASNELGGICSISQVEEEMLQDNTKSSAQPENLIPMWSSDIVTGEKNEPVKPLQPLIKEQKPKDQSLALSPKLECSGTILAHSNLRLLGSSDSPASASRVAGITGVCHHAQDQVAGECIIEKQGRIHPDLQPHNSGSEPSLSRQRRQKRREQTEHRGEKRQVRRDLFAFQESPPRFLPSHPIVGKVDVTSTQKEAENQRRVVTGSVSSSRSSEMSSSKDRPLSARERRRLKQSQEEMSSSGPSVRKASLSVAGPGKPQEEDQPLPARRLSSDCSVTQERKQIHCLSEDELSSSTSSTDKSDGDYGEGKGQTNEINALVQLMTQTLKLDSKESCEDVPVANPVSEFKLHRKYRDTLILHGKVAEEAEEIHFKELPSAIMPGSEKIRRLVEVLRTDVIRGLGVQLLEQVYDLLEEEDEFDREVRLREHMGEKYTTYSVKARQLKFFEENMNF
Experiment: Inhibition of NEK4 (unknown origin) at 10 uM relative to control
Examples of compounds with documented % control follow.
Give the value, in units of %, as a plain number.

INSERT INTO assay_data (smiles_text, units_text, endpoint_value) VALUES
  ('Cc1cc(NC(=O)c2cccc(NC(=O)/C=C/CN(C)C)c2)ccc1Nc1nccc(-c2cccnc2)n1', '%', 79),
  ('O=C1NC(=O)/C(=C/c2ccc3nccc(-c4ccncc4)c3c2)S1', '%', 96);

Asked: Please indicate % control recorded for "CN(C)C/C=C/C(=O)Nc1cccc(C(=O)Nc2ccc(Nc3nccc(-c4c(-c5ccccc5)nn5ccccc45)n3)cc2)c1"
Given back: 100

Asked: Please indicate % control recorded for "CN(C)C/C=C/C(=O)Nc1ccc(C(=O)Nc2cccc(Nc3nccc(-c4cccnc4)n3)c2)cc1"
Given back: 100

Asked: Please indicate % control recorded for "Cc1ccc(NC(=O)c2ccc(NC(=O)/C=C/CN(C)C)cc2)cc1Nc1nccc(-c2cccnc2)n1"
Given back: 100

Asked: Please indicate % control recorded for "CN(C)C/C=C/C(=O)Nc1cccc(C(=O)Nc2ccc(Nc3nccc(/C(C#N)=C4\Nc5ccccc5S4)n3)cc2)c1"
Given back: 100

Asked: Please indicate % control recorded for "CN(C)C/C=C/C(=O)Nc1cccc(C(=O)Nc2ccc(Nc3nccc(-c4cccnc4)n3)cc2)c1"
Given back: 83

Asked: Please indicate % control recorded for "CCCS(=O)(=O)Nc1ccc(F)c(C(=O)c2c[nH]c3ncc(-c4ccc(Cl)cc4)cc23)c1F"
Given back: 71

Asked: Please indicate % control recorded for "Fc1cc(-c2cc[nH]/c(=N/c3ccc(-n4cnc(N5CCOCC5)n4)cc3)n2)cc(N2CCOCC2)c1"
Given back: 100
